test.target: recombinant human NF-kappaB-inducing kinase (NIK/MAP3K14) (Homo sapiens)
method.notes: Biological Assay B: inhibition of auto-phosphorylation of recombinant human NIK/MAP3K14 (AlphaScreen), performed at 2 locations
Type: biochemical
protocol.conditions: location 1; AlphaScreen auto-phosphorylation; averaged values; read-out: Assay B location 1 IC50
pIC50: −log10 of the molar value.
Kind request: treat 8 as inclusive, so pIC50 at 8 or higher is y, anything lower is n.

>>> print(df.to_string())
                                   molecule  label
0  COc1cc(N2CCOCC2)c(Cl)cc1Nc1nccc(-c2cnc3c(c2)C(C)(CO)CN3)n1 (single isomer, unassigned) [Compound 6S]      y
1  CC1(CO)CNc2ncc(-c3ccnc(Nc4cccc(Cl)c4Cl)n3)cc21 (stereo not drawn)      n
2  Cc1cc(N2CCOCC2)c(C#N)cc1Nc1nccc(-c2cnc3c(c2)C(C)(CO)CN3)n1 (single isomer, unassigned) [Compound 262]      n
3  CC1(CO)CNc2ncc(-c3ccnc(Nc4ccccc4OC4CCOCC4)n3)cc21 (stereo not drawn)      n
4  COCCN1CCC(c2cc(OC)c(Nc3nccc(-c4cnc5c(c4)C(C)(CO)CN5)n3)cc2Cl)CC1 (stereo not drawn)      y
5  COc1cc(N2CCOCC2)c(Cl)cc1Nc1nccc(-c2cnc3c(c2)C(C)(CO)CN3)n1 (stereo not drawn) [Compound 6]      y
6  COc1cc(N2CC3(CCOCC3)C2)c(Cl)cc1Nc1nccc(-c2cnc3c(c2)C(C)(CO)CN3)n1 (single isomer, unassigned) [Compound 3R]      n
7  COc1cc(OCCN2CCN(C)CC2)c(Cl)cc1Nc1nccc(-c2cnc3c(c2)C(C)(CO)CN3)n1 (stereo not drawn)      y
8  COc1cc(N2CC(N(C)C)C2)c(Cl)cc1Nc1nccc(-c2cnc3c(c2)C(C)(CO)CN3)n1 (stereo not drawn)      y
9  COc1ccc(N2CCOCC2)cc1Nc1nccc(-c2cnc3c(c2)C(C)(CO)CN3)n1 (stereo not drawn)      n

----------
log10 of IC50 overview
test.target: recombinant human NF-kappaB-inducing kinase (NIK/MAP3K14) (Homo sapiens, UniProt Q99558)
Sequence (Q99558 whole entry): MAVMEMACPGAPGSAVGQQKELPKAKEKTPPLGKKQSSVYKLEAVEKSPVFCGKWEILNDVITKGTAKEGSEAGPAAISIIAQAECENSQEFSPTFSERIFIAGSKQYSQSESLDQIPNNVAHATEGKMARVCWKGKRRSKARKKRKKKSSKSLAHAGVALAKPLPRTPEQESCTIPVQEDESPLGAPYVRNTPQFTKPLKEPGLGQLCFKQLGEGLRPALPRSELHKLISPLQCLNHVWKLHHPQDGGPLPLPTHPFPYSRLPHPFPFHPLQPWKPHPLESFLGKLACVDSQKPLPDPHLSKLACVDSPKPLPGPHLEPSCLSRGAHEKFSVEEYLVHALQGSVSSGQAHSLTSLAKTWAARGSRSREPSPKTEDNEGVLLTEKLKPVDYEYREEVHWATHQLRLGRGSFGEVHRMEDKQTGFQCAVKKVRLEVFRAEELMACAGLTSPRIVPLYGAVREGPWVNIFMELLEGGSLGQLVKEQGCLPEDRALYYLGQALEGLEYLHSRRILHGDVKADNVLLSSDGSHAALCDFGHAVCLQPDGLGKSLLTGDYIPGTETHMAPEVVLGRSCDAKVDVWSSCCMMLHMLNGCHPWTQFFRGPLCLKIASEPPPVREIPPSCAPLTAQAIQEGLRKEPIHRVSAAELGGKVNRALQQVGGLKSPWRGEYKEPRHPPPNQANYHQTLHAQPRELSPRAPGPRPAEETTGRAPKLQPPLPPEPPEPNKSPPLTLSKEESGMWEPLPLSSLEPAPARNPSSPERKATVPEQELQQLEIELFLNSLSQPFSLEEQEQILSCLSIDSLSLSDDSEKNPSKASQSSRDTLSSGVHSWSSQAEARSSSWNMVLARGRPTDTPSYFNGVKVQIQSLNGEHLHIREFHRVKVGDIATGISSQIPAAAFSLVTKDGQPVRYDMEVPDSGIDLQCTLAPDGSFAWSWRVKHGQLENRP
method.notes: Biological Assay B: inhibition of auto-phosphorylation of recombinant human NIK/MAP3K14 (AlphaScreen), performed at 2 locations
Format: biochemical
protocol.conditions: location 2; AlphaScreen auto-phosphorylation; averaged values; read-out: Assay B location 2 IC50
measured.endpoint: log10 of IC50 (log10 of the value in nM)

                                   compound                               test_target  obs_value
0  CCN1CCN(c2cc(OC)c(Nc3nccc(-c4cnc5c(c4)C(C)(CO)CN5)n3)cc2Cl)CC1 (centres unmarked) [Compound 268]  recombinant human NF-kappaB-inducing kinase (NIK/MAP3K14) (Homo sapiens, UniProt Q99558)      -0.15
1  Cc1cccc(Nc2nccc(-c3cnc4c(c3)C(C)(CO)CN4)n2)c1C (centres unmarked)  recombinant human NF-kappaB-inducing kinase (NIK/MAP3K14) (Homo sapiens, UniProt Q99558)       1.35
2  COc1cc(N2CCC(N(C)C)C2)c(Cl)cc1Nc1nccc(-c2cnc3c(c2)C(C)(CO)CN3)n1 (centres unmarked)  recombinant human NF-kappaB-inducing kinase (NIK/MAP3K14) (Homo sapiens, UniProt Q99558)       0.00
3  COc1ccc(Cl)cc1Nc1nccc(-c2cnc3c(c2)C(C)(CO)CN3)n1 (centres unmarked)  recombinant human NF-kappaB-inducing kinase (NIK/MAP3K14) (Homo sapiens, UniProt Q99558)       0.15
4  Cc1cc(N2CCOCC2)c(C#N)cc1Nc1nccc(-c2cnc3c(c2)C(C)(CO)CN3)n1 (centres unmarked) [Compound 363]  recombinant human NF-kappaB-inducing kinase (NIK/MAP3K14) (Homo sapiens, UniProt Q99558)       1.03
5  COc1cc(N2CCOCC2)c(F)cc1Nc1nccc(-c2cnc3c(c2)C(C)(C)CN3)n1  recombinant human NF-kappaB-inducing kinase (NIK/MAP3K14) (Homo sapiens, UniProt Q99558)       1.14
6  COc1cc(N2CCC(C#N)CC2)ccc1Nc1nccc(-c2cnc3c(c2)C(C)(CO)CN3)n1 (centres unmarked)  recombinant human NF-kappaB-inducing kinase (NIK/MAP3K14) (Homo sapiens, UniProt Q99558)       1.11
7  COc1cc(C(=O)NC2CCOCC2)ccc1Nc1nccc(-c2cnc3c(c2)C(C)(CO)CN3)n1 (centres unmarked)  recombinant human NF-kappaB-inducing kinase (NIK/MAP3K14) (Homo sapiens, UniProt Q99558)       0.41

Cited source for all entries: patent US11236084B2
